target: full-length beta-Catenin (Uniprot ID P35222) (Homo sapiens (Human)) (UniProt P35222); assay: fluorescence polarization competition; full-length beta-catenin, competitor 5FAM-TCF4(10-53)
pIC50: −log10 of the molar value. Starred links: 1 amine or outer side, 2 acyl side, 3 side chain; linkers in the order of their positions; H or OH if unused. Positions of bridges follow the written chain, without caps; N, C: chain ends. Non-standard residues stand in square brackets, D forms with d. Primed or numbered codes have the meaning given here. PyrS2″ = (S)-3-amino-1-((pent-4-en-1-yloxy)carbonyl)pyrrolidine-3-carboxylic acid (stapling residue), C=CCCCOC(=O)N1CC[C@@](N[*:1])(C(=O)[*:2])C1; B5(5) = 2,2-bis(4-pentenyl)glycine, 2-amino-2-(pent-4-en-1-yl)hept-6-enoic acid (stitching residue), C=CCCCC(CCCC=C)(N[*:1])C(=O)[*:2]; B5(3) = 2,2-bis(4-pentenyl)glycine (stitching residue), C=CCCCC(CCCC=C)(N[*:1])C(=O)[*:2]; Phe(3-COOH) = N[C@@H](Cc1cccc(C(=O)O)c1)C(=O)O; Phe(2-CF3) = N[C@@H](Cc1ccccc1C(F)(F)F)C(=O)O; Phe(4-F) = N[C@@H](Cc1ccc(F)cc1)C(=O)O; Bta = N[C@@H](Cc1csc2ccccc12)C(=O)O; αAllylPro = C=CC[C@@]1(C(=O)O)CCCN1; tBuAla = CC(C)(C)C[C@H](N)C(=O)O
parameter-measured: pIC50

>>> observed_result("Ac-[αAllylPro]D[tBuAla][B5(3)]D[Phe(3-COOH)]AAFL[PyrS2″][Phe(4-F)][Bta]A-NH2 (staple 1-4, 4-11) [I-2263]")
7.33
>>> observed_result("Ac-[αAllylPro]D[tBuAla][B5(5)]D[Phe(3-COOH)]AAFL[PyrS2″][Phe(2-CF3)][Bta]QLS-NH2 (staple 1-4, 4-11) [I-2384]")
8.30
